Where do these numbers come from? They come from ChEMBL document CHEMBL3232902.

# System: HeLa
# experimentalProtocol: Cytostatic activity against human HeLa cells after 72 hrs by coulter counting analysis
# Type: functional, cell-based
# conditionInfo: Homo sapiens, HeLa, 72 h
pIC50: −log10 of the molar value.
observedProperty: pIC50

[[record]]
compound = "C[C@H](Cn1cnc2c(N)ncnc21)OCP(=O)(N[C@@H](C)C(=O)OCc1ccccc1)Oc1cccc2ccccc12 (some centres not stated)"
censorsymbol = "="
datavalue = 4.96

[[record]]
compound = "C[C@H](Cn1cnc2c(N)ncnc21)OCP(=O)(N[C@@H](C)C(=O)OCC(C)(C)C)N[C@@H](C)C(=O)OCC(C)(C)C"
censorsymbol = "="
datavalue = 5.40

[[record]]
compound = "C[C@H](Cn1cnc2c(N)ncnc21)OCP(=O)(N[C@@H](C)C(=O)OCC(C)(C)C)Oc1ccccc1 (some centres not stated)"
censorsymbol = "="
datavalue = 5.10

[[record]]
compound = "C[C@H](Cn1cnc2c(N)ncnc21)OCP(=O)(N[C@@H](C)C(=O)OCc1ccccc1)N[C@@H](C)C(=O)OCc1ccccc1"
censorsymbol = "<"
datavalue = 3.30

[[record]]
compound = "C[C@H](NP(=O)(COCCn1cnc2c(N)ncnc21)Oc1cccc2c1CCCC2)C(=O)OCC(C)(C)C (some centres not stated)"
censorsymbol = "="
datavalue = 6.35

[[record]]
compound = "C[C@H](Cn1cnc2c(N)ncnc21)OCP(=O)(N[C@@H](C)C(=O)OCC(C)(C)C)Oc1cccc2ccccc12 (stereo in doubt; 15)"
censorsymbol = "="
datavalue = 4.77

[[record]]
compound = "C[C@H](NP(=O)(COCCn1cnc2c(N)ncnc21)Oc1cccc2ccccc12)C(=O)OCc1ccccc1 (some centres not stated)"
censorsymbol = "="
datavalue = 5.80


---

# System: Human immunodeficiency virus 2
# experimentalProtocol: Antiviral activity against Human immunodeficiency virus type 2 ROD infected in human CEM cells assessed as inhibition of virus-induced giant cell formation after 4 to 5 days by microscopic analysis
# Type: functional, organism-based, ISOLATE ROD, CCRF-CEM
# conditionInfo: Human immunodeficiency virus 2, ISOLATE ROD, CCRF-CEM
Listed next: entries and their corresponding EC50.
observedProperty: EC50 (nM)

[[record]]
compound = "C[C@H](NP(=O)(COCCn1cnc2c(N)ncnc21)Oc1cccc2ccccc12)C(=O)OCC(C)(C)C (stereo partly specified)"
unitlabel = "nM"
datavalue = 19

[[record]]
compound = "C[C@H](Cn1cnc2c(N)ncnc21)OCP(=O)(N[C@@H](C)C(=O)OCC(C)(C)C)N[C@@H](C)C(=O)OCC(C)(C)C"
unitlabel = "nM"
datavalue = 2

[[record]]
compound = "C[C@H](Cn1cnc2c(N)ncnc21)OCP(=O)(N[C@@H](C)C(=O)OCC(C)(C)C)Oc1ccccc1 (stereo partly specified)"
unitlabel = "nM"
datavalue = 12

[[record]]
compound = "C[C@H](Cn1cnc2c(N)ncnc21)OCP(=O)(O)O [TENOFOVIR ANHYDROUS]"
unitlabel = "nM"
datavalue = 3700

[[record]]
compound = "C[C@H](Cn1cnc2c(N)ncnc21)OCP(=O)(N[C@@H](C)C(=O)OCC(C)(C)C)Oc1cccc2c1CCCC2 (stereo partly specified)"
unitlabel = "nM"
datavalue = 9

[[record]]
compound = "C[C@H](NP(=O)(COCCn1cnc2c(N)ncnc21)Oc1ccccc1)C(=O)OCC(C)(C)C (stereo partly specified)"
unitlabel = "nM"
datavalue = 44

